System: Mycobacterium tuberculosis
measurement.notes: Inhibition of Mycobacterium tuberculosis DXR-catalyzed NADPH-dependent rearrangement and reduction of DXP to form MEP at 100 uM measured every 5 secs for 500 secs by spectrophotometric analysis
Quick rule for you: inhibition at 40% or higher means true, lower means false.

For orientation, consider the following solved cases.
compound="CC(=O)N(O)CCC(c1ccccc1C#N)P(=O)(O)O (racemic)" test_target="Mycobacterium tuberculosis" label_class=false
compound="CC(=O)N(O)CCC(c1ccccc1CO)P(=O)(O)O (racemic)" test_target="Mycobacterium tuberculosis" label_class=false
compound="CC(=O)N(O)CCC(c1ccccc1)P(=O)(O)O (racemic)" test_target="Mycobacterium tuberculosis" label_class=true

q: Kindly determine if inhibition recorded for CC(=O)N(O)CCC1c2ccccc2COP1(=O)O (racemic) is above or exactly 40%.
a: false

q: Does CC(=O)N(O)CCC(c1ccccc1CCO)P(=O)(O)O (racemic) have a reported inhibition of at least 40%?
a: false

q: Test whether the compound CC(=O)N(O)CCC(c1ccccc1-c1cccnc1)P(=O)(O)O (racemic) records inhibition of 40% or higher.
a: false

q: Decide: is the reported value of inhibition for CCOP(=O)(O)C(CCNC(C)=O)c1ccccc1-c1cccnc1 (racemic) equal to or greater than 40%?
a: false

q: Please tell me: is the compound COCc1ccccc1C(CCN(O)C(C)=O)P(=O)(O)O (racemic) at or over 40% in terms of inhibition?
a: false

q: Determine whether this compound has inhibition no lower than 40%: CC(=O)N(O)CCC(c1ccccc1C)P(=O)(O)O (racemic)
a: true

====

Tested on: Mycobacterium tuberculosis
measurement.notes: Inhibition of Mycobacterium tuberculosis DXR-catalyzed NADPH-dependent rearrangement and reduction of DXP to form MEP at 100 uM measured every 5 secs for 500 secs by spectrophotometric analysis
measurement.kind: inhibition (%)
Only the number, expressed in %, is required.

molecule="CC(=O)N(O)CCC(c1ccccc1Br)P(=O)(O)O (racemic)" measurement_kind=inhibition measurement_unit=% value_measured=38
molecule="O=CN(O)CCC(c1ccccc1Br)P(=O)(O)O (racemic)" measurement_kind=inhibition measurement_unit=% value_measured=93

Moving on to another molecule below.
inhibition for CC(=O)N(O)CCC(c1ccccc1-c1cccs1)P(=O)(O)O (racemic) is 30
